Target: T1, recombinant canine β NGF (canine, UniProt Q29074 110-229 (pig entry))
T1 construct: also called canine NGF
T1 chain: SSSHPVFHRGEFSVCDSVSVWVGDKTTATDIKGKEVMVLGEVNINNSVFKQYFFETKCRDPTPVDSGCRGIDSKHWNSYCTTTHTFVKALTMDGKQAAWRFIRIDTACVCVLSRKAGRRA
Experiment: SPR (Biacore T100), antibody captured on goat anti-canine IgG, canine NGF injected
Experimental: Purified mouse/canine chimeric antibodies and caninized antibodies were analyzed for affinity to canine NGF using a Biacore T100 instrument. […] The association rate was monitored for 5 min and the dissociation rate was monitored for 10-20 min. […] Data was analyzed using Biaevaluation T100 software version 2.0.2, software, GE Healthcare Life Sciences (Piscataway, N.J.). […]
Measured pKd, listed per entry.
The scale used: pKd is minus the common logarithm of the concentration in molar units.

binder	pKd
Mu77 Canine IgG1/k Chimera (antibody, V domains shown, also called PR-1290656; lot 1785699) VH: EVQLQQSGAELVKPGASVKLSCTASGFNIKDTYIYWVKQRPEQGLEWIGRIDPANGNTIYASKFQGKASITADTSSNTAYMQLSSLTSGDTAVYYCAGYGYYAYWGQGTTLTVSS VL: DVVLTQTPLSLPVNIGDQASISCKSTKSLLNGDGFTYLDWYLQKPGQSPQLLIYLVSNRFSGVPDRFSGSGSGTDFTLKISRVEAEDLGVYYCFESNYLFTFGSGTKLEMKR	10.68

Find the recorded pKd belonging to Mu73 Canine IgG1/k Chimera (antibody, V domains shown, also called PR-1290654; lot 1785658) VH: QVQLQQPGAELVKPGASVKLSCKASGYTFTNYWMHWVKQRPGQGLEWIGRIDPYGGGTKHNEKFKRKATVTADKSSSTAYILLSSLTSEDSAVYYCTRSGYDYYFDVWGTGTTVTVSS VL: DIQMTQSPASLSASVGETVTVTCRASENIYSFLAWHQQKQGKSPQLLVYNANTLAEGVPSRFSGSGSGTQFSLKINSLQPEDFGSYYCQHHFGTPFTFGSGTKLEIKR and report it. 10.85

Bench note: what pKd did Mu72 Canine IgG1/k Chimera (antibody, V domains shown, also called PR-1290646; lot 1785614) VH: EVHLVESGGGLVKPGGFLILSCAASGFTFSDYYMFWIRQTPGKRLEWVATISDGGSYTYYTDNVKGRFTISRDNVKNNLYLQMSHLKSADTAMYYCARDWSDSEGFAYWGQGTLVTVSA VL: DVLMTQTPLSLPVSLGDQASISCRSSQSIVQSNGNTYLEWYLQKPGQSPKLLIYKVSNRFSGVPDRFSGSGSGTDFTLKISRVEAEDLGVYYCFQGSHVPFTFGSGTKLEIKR show? 8.89

Item Mu81 Canine IgG1/k Chimera (antibody, V domains shown, also called PR-1290657; lot 1778832) VH: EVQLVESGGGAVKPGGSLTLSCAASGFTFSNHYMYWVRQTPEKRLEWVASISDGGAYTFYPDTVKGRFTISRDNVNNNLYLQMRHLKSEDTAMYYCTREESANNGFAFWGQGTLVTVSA VL: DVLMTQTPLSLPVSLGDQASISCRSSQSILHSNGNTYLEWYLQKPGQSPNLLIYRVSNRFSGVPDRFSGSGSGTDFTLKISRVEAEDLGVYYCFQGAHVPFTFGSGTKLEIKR has what recorded pKd? 10.09
